Listed binders paired with reported pKd
Tested on: Inadl_8, Q8NI35
Sequence (Q8NI35 1425-1530): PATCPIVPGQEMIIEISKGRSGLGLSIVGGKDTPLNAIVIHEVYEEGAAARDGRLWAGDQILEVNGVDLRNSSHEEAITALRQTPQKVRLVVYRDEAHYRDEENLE
Protocol text: holdup assay
Parameters: key: below the threshold = too weak to quantify, mostly under pKd 3.1 to 4
Condition context: plain residues with an end cap or a label only (N-terminal biotin on a linker: ado-ado)
Experimental readout: pKd

binder="EPAKETTTNV [SLC2A3, P11169]" result=3.59
binder="THHRKIHTRV [ZNF599, Q96NL3]" result=4.38
binder="QLKSGRDSTV [TMEM178A, Q8NBL3]" result=3.7
binder="KIEDVEITLV [FCHSD2, O94868]" result=3.99
binder="ADEMICITTL [CACNA1D, Q01668]" result=3.61
binder="FHSIKQSTAV [CRHR1, P34998]" result=3.87
binder="PLPPEEESWV [GAS2L2, Q8NHY3]" result=3.8
binder="NISARRFTLC [FAM167B, Q9BTA0]" result=3.54
binder="HYPASPDSWV [CTNND2, Q9UQB3]" result=4.12
binder="PALKNGQYWV [CSPG4, Q6UVK1]" result=3.5
binder="KLQNPNQSVV [TYRP1, P17643]" result=3.97
binder="QKNKDREYYV [NRXN3, Q9HDB5]" result=3.48
binder="KAEEKPPSKV [SCN4B, Q8IWT1]" result=3.98
binder="IKLETKKTKL [SLC15A2, Q16348]" result=3.76
binder="THREVKFTSL [CD46, P15529]" result=3.53

Reference source for all entries: paper PMC9482650
